These entries and their values trace back to ChEMBL document CHEMBL5131472.

system: Influenza A virus; assay: Antiviral activity against Influenza A virus A/WSN/33(H1N1) infected in dog MDCK cells assessed as reduction in viral titer in supernatants incubated for 24 hrs by plaque assay; format: functional, organism-based
property-measured: IC50 (nM)

line_notation=CSc1ncnc2c([C@H]3C[C@H](O)[C@@H](CO)O3)n[nH]c12 system_name="Influenza A virus" rel=> value_reported=3000
line_notation=CSc1ncnc2c([C@@H]3O[C@H](CO)[C@@H](O)[C@@]3(C)O)n[nH]c12 system_name="Influenza A virus" rel== value_reported=2590
line_notation=O=c1[nH]cnc2c([C@@H]3O[C@H](CO)[C@@H](O)[C@H]3O)n[nH]c12 system_name="Influenza A virus" rel== value_reported=3630
line_notation=CSc1nc(Cl)nc2c([C@@H]3O[C@H](CO)[C@@H](O)[C@H]3O)n[nH]c12 system_name="Influenza A virus" rel=> value_reported=1000
line_notation=CSc1ncnc2c([C@@H]3O[C@H](CO)[C@@H](O)[C@H]3O)n[nH]c12 system_name="Influenza A virus" rel== value_reported=10
line_notation=CNc1ncnc2c([C@@H]3O[C@H](CO)[C@@H](O)[C@H]3O)n[nH]c12 system_name="Influenza A virus" rel== value_reported=15
line_notation=OC[C@H]1O[C@@H](c2n[nH]c3c(NCCl)ncnc23)[C@H](O)[C@@H]1O system_name="Influenza A virus" rel== value_reported=282
line_notation=CCCCNc1ncnc2c([C@@H]3O[C@H](CO)[C@@H](O)[C@H]3O)n[nH]c12 system_name="Influenza A virus" rel== value_reported=680
line_notation=C[Se]c1ncnc2c([C@@H]3O[C@H](CO)[C@@H](O)[C@H]3O)n[nH]c12 system_name="Influenza A virus" rel== value_reported=24
line_notation=OC[C@H]1O[C@@H](c2n[nH]c3c(SCC(F)(F)F)ncnc23)[C@H](O)[C@@H]1O system_name="Influenza A virus" rel== value_reported=1090
line_notation=CN(C)c1ncnc2c([C@@H]3O[C@H](CO)[C@@H](O)[C@H]3O)n[nH]c12 system_name="Influenza A virus" rel== value_reported=2840
line_notation=CCNc1ncnc2c([C@@H]3O[C@H](CO)[C@@H](O)[C@H]3O)n[nH]c12 system_name="Influenza A virus" rel== value_reported=313
line_notation=OC[C@H]1O[C@@H](c2n[nH]c3c(-n4ccnn4)ncnc23)[C@H](O)[C@@H]1O system_name="Influenza A virus" rel== value_reported=343
line_notation=CSc1ncnc2c([C@@H]3O[C@H](CO)[C@@H](O)[C@@H]3O)n[nH]c12 system_name="Influenza A virus" rel=> value_reported=3000
line_notation=OC[C@H]1O[C@@H](c2n[nH]c3c(-n4cncn4)ncnc23)[C@H](O)[C@@H]1O system_name="Influenza A virus" rel== value_reported=251
line_notation=CSc1nc(O)nc2c([C@@H]3O[C@H](CO)[C@@H](O)[C@H]3O)n[nH]c12 system_name="Influenza A virus" rel=> value_reported=1000
line_notation=OC[C@H]1O[C@@H](c2n[nH]c3c(S)ncnc23)[C@H](O)[C@@H]1O system_name="Influenza A virus" rel== value_reported=571
line_notation=OC[C@H]1O[C@@H](c2n[nH]c3c(-n4nccn4)ncnc23)[C@H](O)[C@@H]1O system_name="Influenza A virus" rel== value_reported=103
